These data points were gathered from patent US20090209006.

molecular target: ZTNF4 (BLyS/BAFF) (human); test: competition, 125I-ZTNF4 binding to TACI-coated plates
endpointLabel: pIC50
When answering, recall that pIC50 equals minus log10 of the concentration in mol/L, and write that number alone.

binder="TACI (d1-29, d120-154)-Fc5 (protein) MDAMKRGLCCVLLLCGAVFVSLSQEIHAELRRFRRAMRSCPEEQYWDPLLGTCMSCKTICNHQSQRTCAAFCRSLSCRKEQGKFYDHLLRDCISCASICGQHPKQCAYFCENKLRSPVNLPPELREPKSSDKTHTCPPCPAPEAEGAPSVFLFPPKPKDTLMISRTPEVTCVVVDVSHEDPEVKFNWYVDGVEVHNAKTKPREEQYNSTYRVVSVLTVLHQDWLNGKEYKCKVSNKALPSSIEKTISKAKGQPREPQVYTLPPSRDELTKNQVSLTCLVKGFYPSDIAVEWESNGQPENNYKTTPPVLDSDGSFFLYSKLTVDKSRWQQGNVFSCSVMHEALHNHYTQKSLSLSPGK" endpointlabel=pIC50 numericvalue=8.66
binder="TACI (d1-29, d107-154)-Fc5 (protein) MDAMKRGLCCVLLLCGAVFVSLSQEIHAELRRFRRAMRSCPEEQYWDPLLGTCMSCKTICNHQSQRTCAAFCRSLSCRKEQGKFYDHLLRDCISCASICGQHPKQCAYFCENEPKSSDKTHTCPPCPAPEAEGAPSVFLFPPKPKDTLMISRTPEVTCVVVDVSHEDPEVKFNWYVDGVEVHNAKTKPREEQYNSTYRVVSVLTVLHQDWLNGKEYKCKVSNKALPSSIEKTISKAKGQPREPQVYTLPPSRDELTKNQVSLTCLVKGFYPSDIAVEWESNGQPENNYKTTPPVLDSDGSFFLYSKLTVDKSRWQQGNVFSCSVMHEALHNHYTQKSLSLSPGK" endpointlabel=pIC50 numericvalue=8.31

As a next step, examine the binder that follows.
Form field pIC50, entry TACI (d1-29)-Fc5 (protein) MDAMKRGLCCVLLLCGAVFVSLSQEIHAELRRFRRAMRSCPEEQYWDPLLGTCMSCKTICNHQSQRTCAAFCRSLSCRKEQGKFYDHLLRDCISCASICGQHPKQCAYFCENKLRSPVNLPPELRRQRSGEVENNSDNSGRYQGLEHRGSEASPALPGLKEPKSSDKTHTCPPCPAPEAEGAPSVFLFPPKPKDTLMISRTPEVTCVVVDVSHEDPEVKFNWYVDGVEVHNAKTKPREEQYNSTYRVVSVLTVLHQDWLNGKEYKCKVSNKALPSSIEKTISKAKGQPREPQVYTLPPSRDELTKNQVSLTCLVKGFYPSDIAVEWESNGQPENNYKTTPPVLDSDGSFFLYSKLTVDKSRWQQGNVFSCSVMHEALHNHYTQKSLSLSPGK : 8.68
